system: S. roseosporus (ISP 5122; ATCC 23958); assay: Antibiotic sensitivity of comparison culture (sensitivity discs); format: cell-based, Streptomyces roseosporus; design: key: + = sensitive (zones of inhibition); - = resistant (no zones of inhibition); settings: discs on seeded ISP #2 agar; erythromycin 15 μg, cephalothin 30 μg, lincomycin 2 μg, nystatin 100 units, polymyxin B 300 units, streptomycin 10 μg, tetracycline 30 μg, vancomycin 30 μg
READOUT_KIND: Antibiotic Sensitivity, S. roseosporus

[[record]]
molecule = "CN(C)[C@@H]1C(O)=C(C(N)=O)C(=O)[C@@]2(O)C(O)=C3C(=O)c4c(O)cccc4[C@@](C)(O)[C@H]3C[C@@H]12"
system_tested = "S. roseosporus (ISP 5122; ATCC 23958)"
assay_result = "+"

[[record]]
molecule = "[H]/N=C(/N)N[C@H]1[C@H](O)[C@@H](O)[C@H](O[C@@H]2O[C@@H](C)[C@](O)(C=O)[C@H]2O[C@@H]2O[C@@H](CO)[C@H](O)[C@@H](O)[C@@H]2NC)[C@@H](N/C(N)=N\\[H])[C@@H]1O"
system_tested = "S. roseosporus (ISP 5122; ATCC 23958)"
assay_result = "+"

[[record]]
molecule = "CCC[C@@H]1C[C@@H](C(=O)N[C@@H]([C@H]2O[C@H](SC)[C@H](O)[C@@H](O)[C@H]2O)[C@@H](C)O)N(C)C1"
system_tested = "S. roseosporus (ISP 5122; ATCC 23958)"
assay_result = "-"

[[record]]
molecule = "CC[C@H]1OC(=O)[C@H](C)[C@@H](O[C@H]2C[C@@](C)(OC)[C@@H](O)[C@H](C)O2)[C@H](C)[C@@H](O[C@@H]2O[C@H](C)C[C@H](N(C)C)[C@H]2O)[C@](C)(O)C[C@@H](C)C(=O)[C@H](C)[C@@H](O)[C@]1(C)O [Erythromycin, reference compound]"
system_tested = "S. roseosporus (ISP 5122; ATCC 23958)"
assay_result = "+"

[[record]]
molecule = "CC(=O)OCC1=C(C(=O)O)N2C(=O)[C@@H](NC(=O)Cc3cccs3)[C@H]2SC1"
system_tested = "S. roseosporus (ISP 5122; ATCC 23958)"
assay_result = "+"

[[record]]
molecule = "C[C@@H]1[C@H](O)[C@@H](C)/C=C/C=C/CC/C=C/C=C/C=C/C=C/C(O[C@H]2O[C@H](C)[C@@H](O)[C@H](N)[C@@H]2O)CC2O[C@](O)(CC(O)C(O)CCC(O)CC(O)CC(O)CC(=O)O[C@H]1C)CC(O)C2C(=O)O (stereo partly shown)"
system_tested = "S. roseosporus (ISP 5122; ATCC 23958)"
assay_result = "-"

[[record]]
molecule = "CN[C@H](CC(C)C)C(=O)N[C@H]1C(=O)N[C@@H](CC(N)=O)C(=O)N[C@H]2C(=O)N[C@H]3C(=O)N[C@H](C(=O)N[C@H](C(=O)O)c4cc(O)cc(O)c4-c4cc3ccc4O)[C@H](O)c3ccc(c(Cl)c3)Oc3cc2cc(c3O[C@@H]2O[C@H](CO)[C@@H](O)[C@H](O)[C@H]2O[C@H]2C[C@](C)(N)[C@H](O)[C@H](C)O2)Oc2ccc(cc2Cl)[C@H]1O [Vancomycin, reference compound]"
system_tested = "S. roseosporus (ISP 5122; ATCC 23958)"
assay_result = "+"

